- test details: Permeability from apical to basolateral side in human Caco2 cells
- Type: ADME, cell-based
- measurement context: Caco-2, read-out: permeability
observed property: Papp A→B (×10⁻⁶ cm/s)

Nc1ncnc2c1c(-c1cc(OCC34CCC(CC3)O4)ccc1F)cn2[C@H]1C[C@@H](CN2CC[S+]([O-])CC2)C1
4.8
C[C@]1(O)C[C@@H](c2nc(-c3ccc4ccc(-c5ccccc5)nc4c3)c3c(N)nccn32)C1
15.1
CC(=O)N1CCN([C@H]2C[C@H](n3cc(-c4cc(OC[C@@H]5CCCO5)ccc4F)c4c(N)ncnc43)C2)CC1
10.1

a = CC(=O)N1CCN([C@H]2C[C@@H](n3cc(-c4cc(OC[C@@H]5CCCO5)ccc4F)c4c(N)ncnc43)C2)CC1
b = Nc1ncnc2c1c(-c1cc(OC[C@@H]3CCCO3)ccc1F)cn2[C@H]1C[C@@H](CN2CC[S+]([O-])CC2)C1
c = CC(=O)N1CCN([C@H]2C[C@@H](n3cc(-c4cccc(OCC56CCC(CC5)O6)c4)c4c(N)ncnc43)C2)CC1
## Input Your job: order these 3 records by Papp A→B, ascending. Rank the items, then write their labels in that order.
## Output b, c, a
(b: 2.9 ×10⁻⁶ cm/s, c: 5.6 ×10⁻⁶ cm/s, a: 11.7 ×10⁻⁶ cm/s)
